- Test system: replicon 1b-Con1
- assay-details: HCV subgenomic replicon luciferase reporter assay, replicon 1b-Con1
- Type: cell-based, Hepatitis C virus (HCV) genotype 1b-Con1
- measurement-parameters: Hepatitis C virus, 72 h; stable subgenomic replicon cell line, luciferase reporter, three days incubation; values given as ranges or bound

{"compound": "CC(C)c1ccc2c(Nc3cc(CN(Cc4ccc(Sc5ccc(N)cc5)c(Nc5ncnc6nc(C(C)C)ccc56)c4)C(C)C)ccc3Sc3ccc(N)cc3)ncnc2n1 [Example 24]", "IC50": "0.1 to 10 nM"}
{"compound": "Cc1ccc2c(Nc3cc(-c4ccc(-c5ccc(Sc6ccc(N)cc6)c(Nc6ncnc7nc(C)ccc67)c5)cc4)ccc3Sc3ccc(N)cc3)ncnc2n1 [Example 13]", "IC50": "0.1 to 10 nM"}
{"compound": "CC(C)c1ccc2c(Nc3cc(-c4ccc(-c5ccc(Sc6ccc(N)cc6)c(Nc6ncnc7nc(C(C)C)ccc67)c5)nc4)ccc3Sc3ccc(N)cc3)ncnc2n1 [Example 12]", "IC50": "0.1 to 10 nM"}
